Consider the following compounds and their measured GI50 readings.
- Tested on: SW-620
- EXPERIMENT_SUMMARY: NCI tumour cell line growth inhibition, 48 h
Calls of active or inactive are those of the source. Cut-off read from the data, not from the text of the source: active = GI50 up to about 1.1 µM and inactive = higher.
VALUE_TYPE: GI50

N#CC(NNC(=O)Cc1ccccc1)c1ccccc1O (centres undefined) :: 10.2 µM (inactive)
CC(C)C1CC(CO)(CNc2nc(N)nc(Cl)c2/C=N\O)C1 (centres undefined) :: 22.5 µM (inactive)
Cc1cc(C)n(-c2nc3ccccc3c(=O)[nH]2)n1 :: 3.28 µM (inactive)
CC(C)(C)OC(=O)/C=C/[C@@H](CCC(=O)/C=C/[C@H](/C=C\CCCC(=O)O)NC1(c2ccccc2)c2ccccc2-c2ccccc21)O[Si](C)(C)C(C)(C)C :: 26.9 µM (inactive)
Nc1cc2c3c(c1)Oc1cc(N)cc4c1C3c1c(cc(N)cc1O4)O2 :: 33.7 µM (inactive)
COC(=O)[C@]1(C)CCC[C@]2(C)[C@H]3CC[C@]4(C(C)C)OO[C@@H](O4)[C@]34O[C@@H]4C[C@H]21 :: 3.1 µM (inactive)
O=C1NC2(CCCCC2)C2CCCCCC12 (centres undefined) :: > 100 µM (inactive)
COc1ccc(CCc2cc(OC)cc(OC)c2)cc1 :: 5.93 µM (inactive)
CC(C)(Oc1ccc(C(=O)c2ccc(Cl)cc2)cc1Cl)C(=O)N1CCN(CCO)CC1 :: > 10 µM (inactive)

---

- Test system: UACC-62
- EXPERIMENT_SUMMARY: NCI tumour cell line growth inhibition, 48 h
Calls of active or inactive are those of the source. Cut-off read from the data, not from the text of the source: active = GI50 up to about 1.1 µM and inactive = higher.
VALUE_TYPE: GI50

Cn1c2ccccc2n2c3ncccc3c(=O)c(C#N)c12 :: 8.41 µM (inactive)
CC(C)C1CC(CO)(CNc2nc(N)nc(Cl)c2/C=N\O)C1 (stereo unspecified) :: 11.6 µM (inactive)
CN(C)Cc1cc(/N=N/c2ccc(Cl)c(Cl)c2)ccc1O :: 5.96 µM (inactive)
CSC1(Cc2ccccn2)C(=O)Nc2cccc([N+](=O)[O-])c21 (stereo unspecified) :: > 100 µM (inactive)
Cc1ccc(-c2nnc(CCCCCCCCc3nnc(-c4ccc(C)cc4O)n3N)n2N)c(O)c1 :: > 100 µM (inactive)
S=c1sc2c(S)nc(S)nc2n1-c1ccccc1 :: > 100 µM (inactive)

---

- System: HOP-92
- EXPERIMENT_SUMMARY: NCI tumour cell line growth inhibition, 48 h
The source made the active and inactive calls. Cut-off read from the data, not from the text of the source: active = GI50 up to about 1.1 µM and inactive = higher.
Consider the following compounds and their measured GI50 readings.
VALUE_TYPE: GI50

COc1cc2c(cc1OC)C(OC)N(C)c1c-2ccc2cc3c(cc12)OCO3 (stereo not drawn) :: 2.19 µM (inactive)
COc1ccc(C2C(C#N)=C(S)N(C3OC(COC(C)=O)C(OC(C)=O)C(OC(C)=O)C3OC(C)=O)C(C)=C2C(C)=O)cc1 (stereo not drawn) :: 30 µM (inactive)
N#Cc1cnc(N)nc1NCC1(CO)CC(CCc2ccccc2)C1 (stereo not drawn) :: 19.7 µM (inactive)
CSC(=S)NN=C1CCCCC1 :: > 100 µM (inactive)
Cc1c(Cl)cccc1NC(=O)/C=C/c1ccccc1 :: 21 µM (inactive)
CC1=C(C(=O)Nc2ccc(Cl)c(Cl)c2)C(c2ccco2)C(C(=O)Nc2ccc(Cl)c(Cl)c2)=C(C)N1 :: 15.8 µM (inactive)
Cc1ccc(S(=O)(=O)Nn2c(S)c(C#N)c(-c3ccc(Cl)cc3)c(C#N)c2=O)cc1 :: 59 µM (inactive)
COc1ccc(CCc2cc(OC)cc(OC)c2)cc1 :: 38.3 µM (inactive)
